Data provenance is patent EP2345639A1.

PROTOCOL NOTES: Acid dissociation constants (pKa) by titration
Format: physicochemical
MEASUREMENT PARAMETERS: pH at semi-neutralization point of titration with 0.1 N NaOH or HCl
MEASURED QUANTITY: pKa2
Lab note: record just the number, no unit beside it.

Some solved entries appear below for comparison.
MOLECULE	pKa2
CC1(C)CC(=O)C(C2CCCCN2O)C(=O)C1 (centres unmarked)	6.92
CC1(C)CCN(O)C(C2C(=O)CC(c3ccccc3)CC2=O)C1 (centres unmarked)	6.85
O=C1CCCC(=O)C1C1COCCN1O (centres unmarked)	6.39
O=C1CCC(=O)C1C1COCCN1O (centres unmarked)	4.98
O=c1oc2ccccc2c(O)c1C1COCCN1O (centres unmarked)	6.14
O=C1CC(c2ccccc2)CC(=O)C1C1COCCN1O (centres unmarked)	6.44
CC1(C)CC(=O)C(C2CC(C)(C)CCN2O)C(=O)C1 (centres unmarked)	6.83
CC1(C)CC(=O)C(C2COCCN2O)C(=O)C1 (centres unmarked)	6.15

Need pKa2 of CC1=NN(c2ccccc2)C(=O)C1C1COCCN1O (centres unmarked) , thanks.
6.92

Need pKa2 of Cc1cc(O)c(C2COCCN2O)c(=O)o1 (centres unmarked) , thanks.
5.71

Need pKa2 of O=C1c2ccccc2C(=O)C1C1COCCN1O (centres unmarked) , thanks.
5.98
